Data origin, for the record: ChEMBL document CHEMBL1697681

- System: Phospholipidosis
- measurement-protocol: Literature-mined public compounds from Lowe et al phospholipidosis modelling dataset
measured-metric: Phospholipidosis

{"molecule": "CC(C)(N)Cc1ccccc1", "Phospholipidosis": "Positive"}
{"molecule": "CCN(CC)CCOc1ccc(C(O)(Cc2ccc(Cl)cc2)c2ccc(C)cc2)cc1 (stereo unspecified)", "Phospholipidosis": "Positive"}
{"molecule": "CC(CCc1ccccc1)NCC(O)c1ccc(O)c(C(N)=O)c1 (stereo unspecified)", "Phospholipidosis": "Positive"}
{"molecule": "CSc1ccc2c(c1)N(CCC1CCCCN1C)c1ccccc1S2 (stereo unspecified)", "Phospholipidosis": "Positive"}
{"molecule": "NS(=O)(=O)c1cc(C(=O)O)c(NCc2ccco2)cc1Cl [FUROSEMIDE]", "Phospholipidosis": "Negative"}

Now turn to the next molecule.
## Task What value of Phospholipidosis has been recorded for this entry: "CCSCC[C@H](N)C(=O)O"
## Result Negative
